- System under test: T1, Ep-CAM (UniProt P16422 24-265, limits assumed)
- T1 construct: Immobilised on the Biacore chip; construct not described
- T1 sequence (looked up): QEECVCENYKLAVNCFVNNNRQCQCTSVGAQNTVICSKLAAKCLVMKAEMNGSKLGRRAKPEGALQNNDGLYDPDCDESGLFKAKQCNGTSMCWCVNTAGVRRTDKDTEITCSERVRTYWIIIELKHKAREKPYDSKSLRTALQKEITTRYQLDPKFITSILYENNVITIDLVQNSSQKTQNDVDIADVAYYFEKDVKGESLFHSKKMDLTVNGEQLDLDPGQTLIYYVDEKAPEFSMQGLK
- Assay remarks: Biacore, Fab periplasmic extract
Endpoint: fold difference in affinity vs original ING-1 (fold)
Express the result in fold but write the number alone.

- Binder: "ING-1 Fab, light chain L99P (Fab, V domains shown, Fab in periplasmic extract) VH: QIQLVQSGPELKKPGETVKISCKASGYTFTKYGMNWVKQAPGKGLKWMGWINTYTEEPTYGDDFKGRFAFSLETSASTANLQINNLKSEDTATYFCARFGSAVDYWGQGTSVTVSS VL: DIVMTQAAFSNPVTLGTSGSISCRSSKSLLHSNGITYLYWYLQKPGQSPQLLIYQMSNLASGVPDRFSSSGSGTDFTLRISRVEAEDVGVYYCAQNLEPPRTFGGGTKLEMKR"
  Recorded measurement: 0.01

// below: fold difference in affinity vs original ING-1 requested for another binder
Query ING-1 Fab, light chain M56G (Fab, V domains shown, Fab in periplasmic extract) VH: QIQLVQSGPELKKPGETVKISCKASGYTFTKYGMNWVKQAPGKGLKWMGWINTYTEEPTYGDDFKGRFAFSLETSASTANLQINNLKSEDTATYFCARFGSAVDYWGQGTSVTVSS VL: DIVMTQAAFSNPVTLGTSGSISCRSSKSLLHSNGITYLYWYLQKPGQSPQLLIYQGSNLASGVPDRFSSSGSGTDFTLRISRVEAEDVGVYYCAQNLELPRTFGGGTKLEMKR yields fold difference in affinity vs original ING-1 of 0.8
